The compounds listed here are annotated with their Emax.
Molecular target: delF508-CFTR-HRP (Homo sapiens, UniProt P13569, DEL508-508)
Construct: expressed in transfected cells
Sequence (P13569 with tags, fused parts or gaps DEL508-508): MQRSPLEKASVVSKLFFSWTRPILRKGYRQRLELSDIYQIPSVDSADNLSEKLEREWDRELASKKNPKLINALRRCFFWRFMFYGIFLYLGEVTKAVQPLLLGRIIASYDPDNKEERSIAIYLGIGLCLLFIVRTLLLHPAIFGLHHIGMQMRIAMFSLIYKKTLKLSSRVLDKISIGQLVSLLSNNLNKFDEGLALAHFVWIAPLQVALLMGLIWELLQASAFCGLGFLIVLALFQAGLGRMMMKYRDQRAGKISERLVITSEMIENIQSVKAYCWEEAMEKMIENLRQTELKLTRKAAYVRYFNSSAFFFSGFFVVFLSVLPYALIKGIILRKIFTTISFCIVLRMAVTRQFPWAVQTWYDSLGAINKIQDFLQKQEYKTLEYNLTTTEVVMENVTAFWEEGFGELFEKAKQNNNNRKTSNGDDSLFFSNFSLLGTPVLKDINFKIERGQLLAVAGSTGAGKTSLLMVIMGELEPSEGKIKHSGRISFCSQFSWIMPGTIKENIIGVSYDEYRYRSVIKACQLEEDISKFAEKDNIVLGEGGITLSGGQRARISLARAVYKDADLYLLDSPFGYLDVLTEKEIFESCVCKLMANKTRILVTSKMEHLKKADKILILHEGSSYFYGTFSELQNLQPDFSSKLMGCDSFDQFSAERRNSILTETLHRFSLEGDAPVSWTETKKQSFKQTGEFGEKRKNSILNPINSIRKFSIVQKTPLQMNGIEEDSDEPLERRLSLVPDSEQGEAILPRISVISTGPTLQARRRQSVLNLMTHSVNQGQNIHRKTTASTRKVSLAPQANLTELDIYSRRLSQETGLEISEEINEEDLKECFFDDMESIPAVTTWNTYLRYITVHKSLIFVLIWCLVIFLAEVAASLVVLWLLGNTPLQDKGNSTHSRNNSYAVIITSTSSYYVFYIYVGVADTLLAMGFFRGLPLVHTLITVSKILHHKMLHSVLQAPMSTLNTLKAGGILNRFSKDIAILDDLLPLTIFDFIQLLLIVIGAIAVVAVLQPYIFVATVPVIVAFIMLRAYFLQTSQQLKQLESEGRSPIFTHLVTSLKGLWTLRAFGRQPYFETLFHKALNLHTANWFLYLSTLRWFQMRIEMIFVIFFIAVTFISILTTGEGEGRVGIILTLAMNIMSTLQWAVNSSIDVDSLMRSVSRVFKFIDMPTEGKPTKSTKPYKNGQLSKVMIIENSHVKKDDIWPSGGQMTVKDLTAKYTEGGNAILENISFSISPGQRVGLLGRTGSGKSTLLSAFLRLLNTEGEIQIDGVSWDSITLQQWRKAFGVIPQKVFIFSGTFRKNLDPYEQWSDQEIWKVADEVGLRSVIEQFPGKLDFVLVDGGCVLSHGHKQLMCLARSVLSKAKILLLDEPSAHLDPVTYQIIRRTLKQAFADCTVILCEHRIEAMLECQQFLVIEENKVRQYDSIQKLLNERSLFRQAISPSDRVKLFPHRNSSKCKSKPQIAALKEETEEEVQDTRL
Test: Measurement of delF508-CFTR-HRP surface expression in CFBE41o- cells (HRP luminescence);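 further: percent efficacy relative to a reference CFTR corrector compound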
Type: cell-based
Conditions: CFBE41o-, read-out: DelF508-CFTR-HRP Amax %
Experimental: Measurement of delF508-CFTR-HRP Surface Expression in CFBE41o-Cells This assay quantifies the cell surface expressions of the mutant CFTR channel using an extracellular HRP tag. […] The median activity for the lowest concentration of the compounds on each assay plate was calculated and this value was used to normalize the signal for each well on the respective plate. […] The median value was determined and used to calculate compound activities as described below. […]
Return type: number; implicit unit %.

Example entries begin here.
CC(C)COc1cccc(-c2ccc(Cl)cc2OC2(C(=O)NS(=O)(=O)c3cccc(N4CCC(C)(C#N)CC4)n3)CC2)c1 [Example 5-3]    286
CC(C)(C)C1CCN(c2ccc(Cl)cc2OC2(C(=O)NS(=O)(=O)c3cccc(N4CC[C@H](O)C4)n3)CC2)CC1 [Example 9-34]    152
O=C(NS(=O)(=O)c1cccc(N2CC[C@H](O)C2)n1)C1(Oc2cc(Cl)ccc2-c2ccc3c(c2)OC(F)(F)O3)CC1 [Example 5-15]    361
Cc1ccc(-c2cccc(C(F)(F)F)c2)c(OC2(C(=O)NS(=O)(=O)c3cccc(N4CC[C@H](O)C4)n3)CC2)c1 [Example 5-1]    503
CC1(C)CN(c2ccc(Cl)cc2OC2(C(=O)NS(=O)(=O)c3cccc(N4CC[C@H](O)C4)n3)CC2)C1 [Example 9-21]    720

Quick one: Emax of Cc1ccc(C2CCCOC2)c(OC2(C(=O)NS(=O)(=O)c3cccc(N4CCC[C@@H](CO)C4)n3)CC2)c1 (stereo partly shown) [Example 4-20] ?
202

Quick one: Emax of Cc1ccc(C2CC=CCC2)c(OC2(C(=O)NS(=O)(=O)c3cccc(N4CC(C)(O)C4)n3)CC2)c1 (stereo not shown) [Example 4-22] ?
453
